Property: viability, T/C; scope: individual molecules
# Test system: 521955-158-R2-J5-PDC complex spheroid growth
# PROTOCOL DESCRIPTION: Anticancer human tumor 521955-158-R2-J5-PDC patient-derived pancreatic carcinoma cell line growth inhibition [AhR]
# TEST SETTINGS: second compound 3.16 µM; first compound 0.0316 µM; stronger effect = lower value
Write the value in % as a bare number.

Look over these answered cases.
Nc1ncn(C2CC(O)C(CO)O2)c(=O)n1 (stereo not given) + Cc1ccccc1N=Nc1ccc(NC(=O)c2ccnn2C)c(C)c1 | 110
NS(=O)(=O)OCC1CC(n2ccc3c(NC4CCc5ccccc54)ncnc32)CC1O (stereo not given) + Cc1cncc(-c2nc(NCCc3c[nH]c4ccccc34)c3ncn(C(C)C)c3n2)c1 | 99.4
CC1COCCN1c1cc(-c2ccnn2C)c2ccnc(-c3ccn[nH]3)c2n1 (stereo not given) + Cc1ccccc1N=Nc1ccc(NC(=O)c2ccnn2C)c(C)c1 | 145
CC(C)c1c(-c2ccccc2)nc2c(C#N)c[nH]n2c1=O + Cc1cncc(-c2nc(NCCc3c[nH]c4ccccc34)c3ncn(C(C)C)c3n2)c1 | 169

What viability, T/C value was documented for this molecule, CC1(C)CCC(CN2CCN(c3ccc(C(=O)NS(=O)(=O)c4ccc(NCC5CCOCC5)c([N+](=O)[O-])c4)c(Oc4cnc5[nH]ccc5c4)c3)CC2)=C(c2ccc(Cl)cc2)C1 + Cc1ccccc1N=Nc1ccc(NC(=O)c2ccnn2C)c(C)c1 ? 135

Nc1ncn(C2CC(O)C(CO)O2)c(=O)n1 (stereo not given) + CC(CO)NC(=O)c1cc(-c2ccc(Cl)cc2)nn(-c2cnn(C)c2)c1=O , same question. 87.3

Try this molecule too: COc1cccc2c1C(=O)c1c(O)c3c(c(O)c1C2=O)CC(O)(C(=O)CO)CC3OC1CC(N)C(O)C(C)O1 (stereo not given) + Cc1cncc(-c2nc(NCCc3c[nH]c4ccccc34)c3ncn(C(C)C)c3n2)c1 64.2

Now consider Cn1ncnc1C1c2n[nH]c(=O)c3cc(F)cc(c23)NC1c1ccc(F)cc1 (stereo not given) + Cc1cncc(-c2nc(NCCc3c[nH]c4ccccc34)c3ncn(C(C)C)c3n2)c1 and answer again. 122

What do you get for CC[C@@]1(O)C(=O)OCc2c1cc1n(c2=O)Cc2cc3c(CN(C)C)c(O)ccc3nc2-1 + CC(CO)NC(=O)c1cc(-c2ccc(Cl)cc2)nn(-c2cnn(C)c2)c1=O ? 38.3

Now this one: O=C(C=Cc1cccc(S(=O)(=O)Nc2ccccc2)c1)NO + CC(CO)NC(=O)c1cc(-c2ccc(Cl)cc2)nn(-c2cnn(C)c2)c1=O 117

---

# Test system: 521955-158-R2-J5-PDC complex spheroid growth
# PROTOCOL DESCRIPTION: Anticancer human tumor 521955-158-R2-J5-PDC cell line growth inhibition [AhR]
# TEST SETTINGS: curve of first compound; second compound 0.1 µM
Quick list: IC50 per entry.

Nc1ccn(C2OC(CO)C(O)C2(F)F)c(=O)n1 (stereo not given) + Cc1ccccc1N=Nc1ccc(NC(=O)c2ccnn2C)c(C)c1 | 0.267 µM
Nc1ccccc1NC(=O)c1ccc(CNC(=O)OCc2cccnc2)cc1 + Cc1ccccc1N=Nc1ccc(NC(=O)c2ccnn2C)c(C)c1 | 5.03 µM
Nc1ncn(C2CC(O)C(CO)O2)c(=O)n1 (stereo not given) + CC(CO)NC(=O)c1cc(-c2ccc(Cl)cc2)nn(-c2cnn(C)c2)c1=O | 0.621 µM
Cn1ncnc1C1c2n[nH]c(=O)c3cc(F)cc(c23)NC1c1ccc(F)cc1 (stereo not given) + CC(CO)NC(=O)c1cc(-c2ccc(Cl)cc2)nn(-c2cnn(C)c2)c1=O | > 0.1 µM
Nc1ncn(C2CC(O)C(CO)S2)c(=O)n1 (stereo not given) + Cc1ccccc1N=Nc1ccc(NC(=O)c2ccnn2C)c(C)c1 | > 0.3 µM
COc1cccc2c1C(=O)c1c(O)c3c(c(O)c1C2=O)CC(O)(C(=O)CO)CC3OC1CC(N)C(O)C(C)O1 (stereo not given) + Cc1ccccc1N=Nc1ccc(NC(=O)c2ccnn2C)c(C)c1 | < 0.0316 µM

# lookup: IC50 of Nc1ncn(C2CC(O)C(CO)O2)c(=O)n1 (stereo not given) + Cc1ccccc1N=Nc1ccc(NC(=O)c2ccnn2C)c(C)c1 > 1 µM

Do the same for COc1cc(C2c3cc4c(cc3C(OC3OC5COC(C)OC5C(O)C3O)C3COC(=O)C23)OCO4)cc(OC)c1O (stereo not given) + CC(CO)NC(=O)c1cc(-c2ccc(Cl)cc2)nn(-c2cnn(C)c2)c1=O please 1.06 µM

Please answer likewise for O=C(c1cc(Cc2n[nH]c(=O)c3ccccc23)ccc1F)N1CCN(C(=O)C2CC2)CC1 + Cc1ccccc1N=Nc1ccc(NC(=O)c2ccnn2C)c(C)c1 > 10 µM

---

# Test system: 521955-158-R2-J5-PDC complex spheroid growth
# PROTOCOL DESCRIPTION: Anticancer human tumor 521955-158-R2-J5-PDC cell line growth inhibition [AhR]
# TEST SETTINGS: compound alone; run of 06/14/2022
pIC50: −log10 of the molar value.
MEASUREMENT KIND: pIC50

Fill in: pIC50 of "Cc1ccccc1N=Nc1ccc(NC(=O)c2ccnn2C)c(C)c1" is ___ < 5.00

---

Let's look at some compounds and their measured viability, T/C.
# Test system: 521955-158-R2-J5-PDC complex spheroid growth
# PROTOCOL DESCRIPTION: Anticancer human tumor 521955-158-R2-J5-PDC cell line growth inhibition [AhR];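 for viability, T/C: spheroids mix tumor cells with HUVEC endothelium and human MSC stroma; luminescence taken as viability surrogate after a week of drug exposure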
# TEST SETTINGS: second compound 0.316 µM; first compound 1 µM; stronger effect = lower value

These solved cases illustrate the format of a correct answer.
O=C(C=Cc1cccc(S(=O)(=O)Nc2ccccc2)c1)NO + Cc1cncc(-c2nc(NCCc3c[nH]c4ccccc34)c3ncn(C(C)C)c3n2)c1 | 101%
COc1ccc([C@@H](O)c2cc(-c3ncnc4cc(N5CCOCC5)ccc34)c(F)cc2Cl)nn1 + Cc1ccccc1N=Nc1ccc(NC(=O)c2ccnn2C)c(C)c1 | 89.9%
COc1cc(C2c3cc4c(cc3C(OC3OC5COC(C)OC5C(O)C3O)C3COC(=O)C23)OCO4)cc(OC)c1O (configuration not stated) + CC(CO)NC(=O)c1cc(-c2ccc(Cl)cc2)nn(-c2cnn(C)c2)c1=O | 53.4%
O=C(c1cc(Cc2n[nH]c(=O)c3ccccc23)ccc1F)N1CCN(C(=O)C2CC2)CC1 + Cc1cncc(-c2nc(NCCc3c[nH]c4ccccc34)c3ncn(C(C)C)c3n2)c1 | 102%
NS(=O)(=O)OCC1CC(n2ccc3c(NC4CCc5ccccc54)ncnc32)CC1O (configuration not stated) + CC(CO)NC(=O)c1cc(-c2ccc(Cl)cc2)nn(-c2cnn(C)c2)c1=O | 30.5%

Recorded viability, T/C for Nc1ccn(C2OC(CO)C(O)C2(F)F)c(=O)n1 (configuration not stated) + Cc1ccccc1N=Nc1ccc(NC(=O)c2ccnn2C)c(C)c1 , please? 22.3%

Same again, this time with COc1cc(C2c3cc4c(cc3C(OC3OC5COC(C)OC5C(O)C3O)C3COC(=O)C23)OCO4)cc(OC)c1O (configuration not stated) + Cc1cncc(-c2nc(NCCc3c[nH]c4ccccc34)c3ncn(C(C)C)c3n2)c1 49.1%

---

viability, T/C: recorded values
# Test system: 521955-158-R2-J5-PDC complex spheroid growth
# PROTOCOL DESCRIPTION: Anticancer human tumor 521955-158-R2-J5-PDC cell line growth inhibition [AhR];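 for viability, T/C: spheroids mix tumor cells with HUVEC endothelium and human MSC stroma; luminescence taken as viability surrogate after a week of drug exposure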
# TEST SETTINGS: second compound 0.316 µM; first compound 0.00316 µM; stronger effect = lower value
Give the value, in units of %, as a plain number.

Guide cases for viability, T/C, answers given:
Cn1ncnc1C1c2n[nH]c(=O)c3cc(F)cc(c23)NC1c1ccc(F)cc1 (stereo unspecified) + Cc1ccccc1N=Nc1ccc(NC(=O)c2ccnn2C)c(C)c1 | 108
Nc1ncn(C2CC(O)C(CO)O2)c(=O)n1 (stereo unspecified) + Cc1ccccc1N=Nc1ccc(NC(=O)c2ccnn2C)c(C)c1 | 88.5

Endpoint output: viability, T/C of CC[C@@]1(O)C(=O)OCc2c1cc1n(c2=O)Cc2cc3c(CN(C)C)c(O)ccc3nc2-1 + Cc1ccccc1N=Nc1ccc(NC(=O)c2ccnn2C)c(C)c1 . Value? 88.8

Same question for Nc1ncn(C2CC(O)C(CO)O2)c(=O)n1 (stereo unspecified) + Cc1cncc(-c2nc(NCCc3c[nH]c4ccccc34)c3ncn(C(C)C)c3n2)c1 please. 102

// next record Cn1ncnc1C1c2n[nH]c(=O)c3cc(F)cc(c23)NC1c1ccc(F)cc1 (stereo unspecified) + Cc1cncc(-c2nc(NCCc3c[nH]c4ccccc34)c3ncn(C(C)C)c3n2)c1 93.3

Field entry: CC1COCCN1c1cc(-c2ccnn2C)c2ccnc(-c3ccn[nH]3)c2n1 (stereo unspecified) + Cc1ccccc1N=Nc1ccc(NC(=O)c2ccnn2C)c(C)c1 122
